- Experimental system: α1A Human Adrenergic Receptor (Homo sapiens, UniProt P25100)
- Construct: The entire coding region of α1A (1719 bp); expressed in transfected cells
- Sequence (P25100 whole entry): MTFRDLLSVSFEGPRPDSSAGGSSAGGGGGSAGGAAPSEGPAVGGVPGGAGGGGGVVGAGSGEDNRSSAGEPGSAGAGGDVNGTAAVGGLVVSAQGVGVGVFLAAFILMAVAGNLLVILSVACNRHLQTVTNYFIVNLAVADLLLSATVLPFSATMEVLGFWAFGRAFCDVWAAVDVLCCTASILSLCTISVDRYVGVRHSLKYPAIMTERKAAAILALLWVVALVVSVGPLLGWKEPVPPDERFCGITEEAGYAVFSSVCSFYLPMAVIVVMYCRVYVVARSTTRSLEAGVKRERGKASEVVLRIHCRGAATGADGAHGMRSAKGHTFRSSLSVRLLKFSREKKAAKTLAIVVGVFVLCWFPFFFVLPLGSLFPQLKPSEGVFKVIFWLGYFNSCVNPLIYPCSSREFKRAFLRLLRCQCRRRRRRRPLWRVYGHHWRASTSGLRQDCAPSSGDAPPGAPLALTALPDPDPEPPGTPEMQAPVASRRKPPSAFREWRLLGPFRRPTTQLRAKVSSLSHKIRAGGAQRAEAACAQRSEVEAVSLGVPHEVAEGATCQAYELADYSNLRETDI
- Procedure details: Radioligand binding, [3H]prazosin, cloned human α1A adrenergic receptor
- Condition details: [3H]prazosin, cloned human receptor in LM(tk-) cell membranes; SEM and n in lines below; read-out: pKi alpha-1 1a (converted)
Structures can show the parent of a compound that is named as a salt.
Reported log10(Ki) by item:
Record value = log10 of Ki given in nM.

// known answers, use as guide
Compound	Experimental system	log10(Ki)
CC1=C(C(=O)NCCCN2CCC(c3ccccc3)CC2)C(c2ccc([N+](=O)[O-])cc2)c2c([nH]c(=O)[nH]c2=O)N1 (stereo not drawn) [Example 63]	α1A Human Adrenergic Receptor (Homo sapiens, UniProt P25100)	1.65
COC(=O)C1=C(C)NC(C)=C(C(=O)NCCCN2CCC(c3ccccc3)CC2)C1c1ccc(Cl)c([N+](=O)[O-])c1 (stereo not drawn) [Example 17]	α1A Human Adrenergic Receptor (Homo sapiens, UniProt P25100)	2.10
CCC1=C(C(=O)NCCCN2CCC(c3ccccc3)CC2)C(c2ccc([N+](=O)[O-])cc2)C(C(=O)OC)=C(C)N1 (stereo not drawn) [Example 74, hydrochloride hydrate]	α1A Human Adrenergic Receptor (Homo sapiens, UniProt P25100)	1.77
COC(=O)C1=C(C)NC(C)=C(C(=O)NCCCN2CCC(c3ccccc3)CC2)C1c1cccc([N+](=O)[O-])c1 (stereo not drawn) [Example 30]	α1A Human Adrenergic Receptor (Homo sapiens, UniProt P25100)	2.19
CCC1=C(C(=O)NC2CCN(Cc3ccccc3)CC2)C(c2ccc([N+](=O)[O-])cc2)C(C(=O)OC)=C(C)N1 (stereo not drawn) [Example 75, hydrochloride]	α1A Human Adrenergic Receptor (Homo sapiens, UniProt P25100)	3.64

We now examine a further compound.
stdin: # log10(Ki) lookup, item COC(=O)C1=C(C)NC(C)=C(C(=O)NCCCN2CCC(c3ccccc3)CC2)C1c1ccncc1 (stereo not drawn) [Example 32]
stdout: 2.87
